target: BaF3(WT) (Homo sapiens); assay: WST (CCK-8) anti-proliferative assay, BaF3 WT; details: read-out: BaF3(WT); BaF3 WT cells, 72 h treatment, CCK-8 readout OD 450 nm
Reported endpoint: GI50 (µM)

P = CC(=O)NC1CC2c3cc(C(=O)Nc4ccc(OC(F)(F)Cl)cc4)cc(-c4ccn[nH]4)c3N(C(C)C)C2C1 (stereo not drawn)
Q = CC(C)N1c2c(-c3ccn[nH]3)cc(C(=O)Nc3ccc(OC(F)(F)Cl)cc3)cc2C2CCC(NC(=O)CCC(=O)O)C21 (stereo not drawn)
R = CC(=O)NC1CCC2c3cc(C(=O)Nc4ccc(OC(F)(F)Cl)cc4)cc(-c4ccn[nH]4)c3N(CC(C)C)C12 (stereo not drawn)
For the compounds shown above, give the order from largest GI50 to smallest. Returns: the labels listed in the requested order.
Q, P, R
(Q: 2.76 µM, P: 0.19 µM, R: 0.01 µM)

Source: patent US11987575B2
